src = paper PMC9482650

# test_target: MAST2, Q6P0Q8
# Sequence (Q6P0Q8 1099-1202): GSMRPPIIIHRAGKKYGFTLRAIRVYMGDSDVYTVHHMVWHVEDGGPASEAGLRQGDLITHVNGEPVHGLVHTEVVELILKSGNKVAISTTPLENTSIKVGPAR
# assay: holdup assay
# Set-up: key: below the threshold = too weak to quantify, mostly under pKd 3.1 to 4
# test_parameters: plain residues with an end cap or a label only (N-terminal biotin on a linker: ttds)
Record form. Attribute: pKd. Fill in for each entry.
Give bare numbers.

Would you please look over these solved cases?
1) SKPTRRETEV [HPV35-E6, P27228]    5.09
2) QRQARSETLV [HPV59-E6, Q81964]    5.03
3) NDPAWDETNL [ARHGEF7, Q14155;Q14155-1]    5.98
4) DKDPHSETAL [TMIGD1, Q6UXZ0]    5.64
5) RHTTSTETAV [HPV30-E6, P36809]    5.52
6) SSLQSLETSV [ATP2B4, P23634]    5.53

State the recorded pKd for every item in the following list.
1. EVVHTPETSV [SLC16A3, O15427]
2. EMDRRPATVV [PLCB4, Q15147]
3. RLPKIKETTV [FRMPD4, Q14CM0]

Result:
1: 5.16; 2: 3.89; 3: 4.93
